test: folding enthalpy; higher = less favourable; fluorescence melt of hairpins on a sequencing array, two-state fit; settings: sodium 0.088 M
Each entry gets No if its folding enthalpy stays under -30 kcal/mol, and Yes if its folding enthalpy is -30 kcal/mol or above.

{"columns": ["query sequence", "category"],
 "data": [
  ["GACGTGGGAAACTGCGTC ((((..(....)..))))", "Yes"],
  ["GGGGCAGCGAAAGCTCCC (((..(((....))))))", "Yes"],
  ["GATCTTAATAAAGATC ((((((....))))))", "Yes"],
  ["CGACACGGAAACGTTCG (((.(((....))))))", "No"],
  ["GGCGGACGAAAGTCGCC (((.(((....))))))", "Yes"],
  ["GATTTCGAAAGAAATC ((((((....))))))", "No"],
  ["GTGCTCGAAAGAGGACAC ((((((....)))..)))", "Yes"],
  ["GCTCAGGGAAACCTGGGC ((.((((....)))).))", "No"],
  ["CGGGTGAAAACCCG (((((....)))))", "Yes"],
  ["GCAGATGAAAATCTGC ((((((....))))))", "No"],
  ["GTTGTCGAAAGACATAAC ((((((....)))..)))", "Yes"],
  ["GATCGCTGGTGCGATC ((((((....))))))", "No"],
  ["GTCACCGAAAGGTTGAC ((((((....))).)))", "Yes"],
  ["GTGACTCGAAAGAGCAC (((.(((....))))))", "Yes"],
  ["GCACTCGAAAGAGTCTGC ((((((....)))..)))", "Yes"],
  ["GGTCTTACGAAAGTAACC (((..(((....))))))", "Yes"],
  ["GCAAGGCGAAAGCTTTGC ((((.((....)).))))", "No"],
  ["GCAAGCCCGAAAGGGTGC (((..(((....))))))", "Yes"],
  ["GATCAAGTTGTTGATC ((((((....))))))", "No"],
  ["GAGGTGACGAAAGTCCTC (((..(((....))))))", "Yes"],
  ["GCCACTACGAAAGTAGGC (((..(((....))))))", "Yes"]
]}

----------
assay: folding enthalpy; higher = less favourable; fluorescence melt of hairpins on a sequencing array, two-state fit; settings: sodium 0.088 M
# folding enthalpy values compiled below

{"columns": ["query sequence", "unit annotation", "folding enthalpy"],
 "data": [
  ["GTCACCGAAAGGTAGGAC ((((((....)))..)))", "kcal/mol", -17.2],
  ["GGCACAGGAAACCATGCC ((((..(....)..))))", "kcal/mol", -16.3],
  ["GAAGACGAAAGTCTCTTC ((((((....)))..)))", "kcal/mol", -23.9],
  ["GATCAACAATTGATC ((((((...))))))", "kcal/mol", -21.6],
  ["GCATTGCGAAAGCAGCGC ((..(((....)))..))", "kcal/mol", -16.1],
  ["GTGTCCGAAAGGACCAC ((((((....))).)))", "kcal/mol", -10.2],
  ["GGCTTCGGAAACGAGGCC (((.(((....))).)))", "kcal/mol", -46.7],
  ["GGCATCGAAAGATTGGCC ((((((....)))..)))", "kcal/mol", -22.2],
  ["GGCTGGCGAAAGCCCGCC (((.(((....))).)))", "kcal/mol", -22.6],
  ["GATCTATGAATAGATC ((((((....))))))", "kcal/mol", -32.6],
  ["GATCAGCACGCTGATC ((((((....))))))", "kcal/mol", -42.1],
  ["GATCTACGTTAGATC ((((((...))))))", "kcal/mol", -24.8],
  ["GCACCTCCGAAAGGATGC (((..(((....))))))", "kcal/mol", -21.9],
  ["GATCGGATACCCGATC ((((((....))))))", "kcal/mol", -40.3],
  ["GCCTGGCGAAAGCCGTGC ((..(((....)))..))", "kcal/mol", -12.9],
  ["GGTGCAGCGAAAGCTACC (((..(((....))))))", "kcal/mol", -13.6],
  ["GGTCCCGAAAGGGCGACC ((((((....)))..)))", "kcal/mol", -14.3],
  ["GAACACGAAAGTGTTC ((((((....))))))", "kcal/mol", -30.9],
  ["GGTCGGCGAAAGCCAACC (((.(((....))).)))", "kcal/mol", -21],
  ["GCGACCGGAAACGGCCAC (.(.(((....))).).)", "kcal/mol", -14.4],
  ["GTGTGGGGAAACCCACGC (.(((((....))))).)", "kcal/mol", -14.2],
  ["GATCGTGCGCACGATC ((((((....))))))", "kcal/mol", -51.2],
  ["GCAGGGCGAAAGCTCGGC ((.(.((....)).).))", "kcal/mol", -20.6],
  ["CGGGCCCGGAAACGGCCG (((..(((....))))))", "kcal/mol", -13.3],
  ["GGCTTACGAAAGTAGCC (((.(((....))))))", "kcal/mol", -34.1],
  ["GCGTAGGGAAACTTGCGC (((.(.(....).).)))", "kcal/mol", -28.5],
  ["GGATCCGAAAGGATTTCC ((((((....)))..)))", "kcal/mol", -13.7],
  ["GATCACTAATGTGATC ((((((....))))))", "kcal/mol", -35.2],
  ["GATCCGTGCACGGATC ((((((....))))))", "kcal/mol", -40.3],
  ["GCGGTGCCCGC ((((...))))", "kcal/mol", -19.3],
  ["GTGTTCGAAAGAAACAC ((((((....))).)))", "kcal/mol", -28.1],
  ["GCGCCGCGAAAGCATCGC (((..((....))..)))", "kcal/mol", -17],
  ["GCTGAGCGAAAGCTACGC ((..(((....)))..))", "kcal/mol", -16.3],
  ["GATCCAGTGTTGGATC ((((((....))))))", "kcal/mol", -36.9],
  ["GTCGGCGAAAGCCGTGAC ((((((....)))..)))", "kcal/mol", -8.14],
  ["TCCCAGAAATGGGA (((((....)))))", "kcal/mol", -15.9],
  ["GGTGAGGGAAACCTTACC (((.(((....))).)))", "kcal/mol", -33.9],
  ["GGTTAGGAAACTAACC ((((((....))))))", "kcal/mol", -35.6],
  ["GGTCAGAAATGACC (((((....)))))", "kcal/mol", -28.2],
  ["GGCCACGGAAACGCGGCC ((((.((....)).))))", "kcal/mol", -40.4]
]}
